Where these numbers come from: paper PMC4522133

# Condition Description: Patient ID 115, CYP2D6 functional group EM/IM
Result Type: plasma concentration (ng/mL)

Use these answered entries as a reference point.
*Q* Form field: reported plasma concentration of CC/C(=C(\c1ccccc1)c1ccc(OCCN(C)C)cc1)c1ccccc1
*A* 70.72

*Q* Give its plasma concentration value. Item: CC/C(=C(/c1ccc(OCCNC)cc1)c1ccc(O[C@@H]2O[C@H](C(=O)O)[C@@H](O)[C@H](O)[C@H]2O)cc1)c1ccccc1
*A* 0.344

*Q* Find the recorded plasma concentration belonging to CC/C(=C(\c1ccc(O)cc1)c1ccc(OCCNC)cc1)c1ccccc1 [(Z)-Endoxifen 3-OH-NDM-Tam] and report it.
*A* 2.45

*Q* Please give the measured plasma concentration for this molecule: CCC(=C(c1ccccc1)c1ccc(OCCNC)cc1)c1ccc(O)cc1
*A* 2.886

a. CC(O)C(=C(c1ccccc1)c1ccc(OCCN(C)C)cc1)c1ccccc1 (racemic) [(E)-a-OH-Tam]
b. CC(O)C(=C(c1ccccc1)c1ccc(OCCN(C)C)cc1)c1ccccc1 (racemic) [(Z)-a-OH-Tam]
*Q* Which item exceeds the other in plasma concentration, a or b ? Which one? Tell me its label.
*A* a
(a: 0.161 ng/mL, b: 0 ng/mL)
